These data points were gathered from patent US6972286B2.

test system: Streptococcus pneumoniae; assay: Minimum inhibitory concentration (MIC) by agar dilution; assay type: cell-based; conditions: in vitro, agar dilution (NCCLS 1993), Streptococcus pneumoniae strain SPNE 9912; read-out: Antibacterial Activity Minimum Inhibitory Concentration SPNE 9912
Item-by-item account of MIC

molSmiles | targetDesc | MIC
COC(=O)N1CCc2cc(N3C[C@H](CNC(C)=S)OC3=O)ccc2C1 | Streptococcus pneumoniae | < 0.5 µg/mL
CC(=S)NC[C@H]1CN(c2ccc3c(c2)CCN(C(=O)CO)C3)C(=O)O1 | Streptococcus pneumoniae | < 0.5 µg/mL
CC(=O)NC[C@H]1CN(c2ccc3c(c2)CCCN(C=O)C3)C(=O)O1 | Streptococcus pneumoniae | < 0.5 µg/mL
